Measured on: Myc proto-oncogene protein (Homo sapiens)
Test details: ATG_Myc_CIS: Attagene CIS-FACTORIAL HepG2 Assay for human Myelocytomatosis (Myc) Proto-Oncogene Transcription Factor (AID 2282990)
Protocol conditions: HepG2, Attagene cis-reporter transcription factor activity; actives raise or lower the signal
Procedure: ATG_CIS is a cell-based, multiplexed-readout assay that uses HepG2, a human liver cell line, with measurements taken at 24 hours after chemical dosing in a 24-well plate.ATG_Myc_CIS is one of 52 assay component(s) measured or calculated from the ATG_CIS assay. […] This assay endpoint, ATG_Myc_CIS, was analyzed with bidirectional fitting relative to DMSO as the negative control and baseline of activity. […]
Calls of active or inactive are those of the source. Rule for the calls: active = hit-call score of the fitted dose curve at least 0.9, where 1 is the maximum; inactive = score below 0.9.
Entry note: the call must match one of true (1) = active, false (0) = inactive

Previously resolved entries follow.
>  <Compound>
CCOP(=S)(S)OCC

>  <Label class>
false (0)

$$$$
>  <Compound>
CCCCN(CCCC)N=O

>  <Label class>
false (0)

$$$$
>  <Compound>
ClC(Cl)(Cl)c1ccccc1

>  <Label class>
false (0)

$$$$
>  <Compound>
CC1(C)CN=C(NN=C(/C=C/c2ccc(C(F)(F)F)cc2)/C=C/c2ccc(C(F)(F)F)cc2)NC1

>  <Label class>
false (0)

$$$$
>  <Compound>
OCC(F)(F)OC(F)(F)C(F)(F)OC(F)(F)C(F)(F)OC(F)(F)F

>  <Label class>
false (0)

$$$$
>  <Compound>
Cn1[nH]nnc1=S

>  <Label class>
false (0)

$$$$

**Query** Hello, I am checking results. What call was entered for CC(Cc1ccc(OCC(=O)O)cc1)NCC(O)c1csc(C(F)(F)F)n1 (configuration not stated) ?
**Result** false (0)

**Query** Hello, I am checking results. What call was entered for Nc1ccc2ccccc2c1 ?
**Result** false (0)

**Query** Hello, I am checking results. What call was entered for Cc1ccc([N+](=O)[O-])cc1C ?
**Result** false (0)

**Query** Hello, I am checking results. What call was entered for c1nc[nH]n1 ?
**Result** false (0)

**Query** Hello, I am checking results. What call was entered for ClC(Cl)=C(c1ccc(Cl)cc1)c1ccccc1Cl ?
**Result** false (0)

**Query** Hello, I am checking results. What call was entered for COP(N)(=S)OC ?
**Result** false (0)

**Query** Hello, I am checking results. What call was entered for Cc1ccc(O)cc1C ?
**Result** false (0)

**Query** Hello, I am checking results. What call was entered for O=C(O)C(F)(F)OC(F)(F)C(F)(F)OC(F)(F)C(=O)O ?
**Result** false (0)

**Query** Hello, I am checking results. What call was entered for CCCCc1ccc(O)cc1 ?
**Result** false (0)

**Query** Hello, I am checking results. What call was entered for ClC(Cl)c1ccccc1 ?
**Result** false (0)

**Query** Hello, I am checking results. What call was entered for O=C(O)C(F)(F)OC(F)(F)C(F)(F)OC(F)(F)F ?
**Result** false (0)

**Query** Hello, I am checking results. What call was entered for O=[N+]([O-])c1ccccc1 ?
**Result** false (0)

**Query** Hello, I am checking results. What call was entered for CCC1(c2ccccc2)C(=O)N=C(O)NC1=O (configuration not stated) ?
**Result** false (0)

---

Test details: CCTE_Shafer_MEA_dev_burst_duration_mean: CCTE's Neural Network Formation Assay for Mean Burst Duration, Shafer Lab (AID 2284045)
Calls of active or inactive are those of the source. How the source made its calls: active means hit-call score of the fitted dose curve at least 0.9, where 1 is the maximum; inactive means score below 0.9.
Entry note: the call must match one of active, inactive

**Query** Hello, I am checking results. What call was entered for ClC1=C(Cl)C2(Cl)C3C(Cl)C(Cl)CC3C1(Cl)C2(Cl)Cl (centres undefined) ?
**Result** inactive

**Query** Hello, I am checking results. What call was entered for OCC(F)(F)OC(F)(F)C(F)(F)OC(F)(F)C(F)(F)OC(F)(F)F ?
**Result** inactive

**Query** Hello, I am checking results. What call was entered for C=CC(=O)OCC(F)(F)C(F)F ?
**Result** active

**Query** Hello, I am checking results. What call was entered for CCOP(=S)(OCC)SCSCC ?
**Result** inactive

**Query** Hello, I am checking results. What call was entered for CCCCC(CC)COP(=O)(Oc1ccccc1)Oc1ccccc1 (centres undefined) ?
**Result** inactive

**Query** Hello, I am checking results. What call was entered for CO/N=C(/C(=O)OC)c1ccccc1COc1ccccc1C ?
**Result** active

---

Read-out: Vascular endothelial growth factor receptor 2 (Homo sapiens) (UniProt P35968)
Test details: BSK_4H_VEGFRII: BioMAP Diversity Plus: 4H Assay for Vascular endothelial growth factor receptor 2 (VEGFR2) Biomarker Activity (AID 2283031)
Protocol conditions: primary human endothelial cells (HUVEC); actives raise or lower the signal
Activity calls are given as the source filed them. How the source made its calls: active means hit-call score of the fitted dose curve at least 0.9, where 1 is the maximum; inactive means score below 0.9.
Entry note: the call must match one of active, inactive

>  <Compound>
O=C(O)C=CC(F)(C(F)(F)F)C(F)(F)F

>  <Label class>
inactive

$$$$
>  <Compound>
NC(=O)C(F)(F)C(F)(F)F

>  <Label class>
inactive

$$$$

**Query** Hello, I am checking results. What call was entered for O=S(=O)(F)C(F)(F)C(F)(F)C(F)(F)C(F)(F)C(F)(F)C(F)(F)C(F)(F)C(F)(F)F ?
**Result** inactive

**Query** Hello, I am checking results. What call was entered for CCCCc1ccccc1 ?
**Result** inactive

---

Measured on: Estrogen receptor beta (Homo sapiens)
Test details: OT_ER_ERbERb_1440: Odyssey Thera (OT) 24-hour HEK293T Protein-Complementation Assay for Estrogen Receptor-beta/-beta Homodimer (AID 2283380);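 note: fluorescence gain from ER beta LBD homodimer complementation read by laser scanning cytometry; scored as signal increase over DMSO baseline for both agonists and antagonists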
Active and inactive are the calls of the source. The calls were made as follows: active = hit-call score of the fitted dose curve at least 0.9, where 1 is the maximum; inconclusive = response in the unintended direction; inactive = score below 0.9.
Entry note: the call must match one of TRUE (active), FALSE (inactive)

Previously resolved entries follow.
>  <Compound>
CCCCc1ccc(O)cc1

>  <Measured on>
Estrogen receptor beta (Homo sapiens)

>  <Label class>
TRUE

$$$$
>  <Compound>
c1nc[nH]n1

>  <Measured on>
Estrogen receptor beta (Homo sapiens)

>  <Label class>
FALSE

$$$$
>  <Compound>
O=NN1CCCC1

>  <Measured on>
Estrogen receptor beta (Homo sapiens)

>  <Label class>
TRUE

$$$$
>  <Compound>
Cc1ccc(N)cc1N

>  <Measured on>
Estrogen receptor beta (Homo sapiens)

>  <Label class>
FALSE

$$$$
>  <Compound>
CC(Cl)(Cl)C(=O)O

>  <Measured on>
Estrogen receptor beta (Homo sapiens)

>  <Label class>
FALSE

$$$$

**Query** Hello, I am checking results. What call was entered for CCN(CC)c1ccccc1 ?
**Result** FALSE

**Query** Hello, I am checking results. What call was entered for O=C(O)CF ?
**Result** FALSE

**Query** Hello, I am checking results. What call was entered for CCCN(CCC)c1c([N+](=O)[O-])cc(C(C)C)cc1[N+](=O)[O-] ?
**Result** TRUE

**Query** Hello, I am checking results. What call was entered for COCCOCCO ?
**Result** FALSE

**Query** Hello, I am checking results. What call was entered for CCCCN(CCCC)SN(C)C(=O)Oc1cccc2c1OC(C)(C)C2 ?
**Result** FALSE

**Query** Hello, I am checking results. What call was entered for O=[N+]([O-])c1ccccc1 ?
**Result** FALSE

**Query** Hello, I am checking results. What call was entered for COC(N)=O ?
**Result** FALSE

**Query** Hello, I am checking results. What call was entered for CCCCN(CC)C(=O)SCCC ?
**Result** FALSE

**Query** Hello, I am checking results. What call was entered for CCCCC(CC)COC(=O)c1c(Br)c(Br)c(Br)c(Br)c1C(=O)OCC(CC)CCCC (stereo unspecified) ?
**Result** FALSE

**Query** Hello, I am checking results. What call was entered for CCOP(=S)(OCC)SCSCC ?
**Result** FALSE

**Query** Hello, I am checking results. What call was entered for O=S(=O)(c1ccc(O)cc1)c1ccc(O)cc1 ?
**Result** TRUE

**Query** Hello, I am checking results. What call was entered for CC(C)(C)N(NC(=O)c1ccc(Cl)cc1)C(=O)c1ccccc1 ?
**Result** FALSE

**Query** Hello, I am checking results. What call was entered for CC(C)(C)OOC(C)(C)C ?
**Result** FALSE

**Query** Hello, I am checking results. What call was entered for CCOP(=S)(Oc1ccc([N+](=O)[O-])cc1)c1ccccc1 (stereo unspecified) ?
**Result** FALSE

**Query** Hello, I am checking results. What call was entered for Nc1cc2c3c(c1)C(c1ccccc1)=N[C@@H](NC(=O)c1cccnc1)C(=O)N3CC2 ?
**Result** FALSE

**Query** Hello, I am checking results. What call was entered for CCOS(=O)(=O)OCC ?
**Result** FALSE
